Origin of measurements: PubChem BioAssay (NCI)

System: EKVX NSCLC
Method: NCI-60 one-dose screen, 48 h (100 = growth as untreated, 0 = no growth, -100 = all killed)
Measurement Context: 10 µM unless noted
This is part of a sample that, as a whole, favours compounds with a hit. Of some 83,000 tested, about 20% had one in any assay. Activity calls are given as the source filed them. Rule for the calls: active = growth percent below 10; inactive = the rest.
Attribute Measured: growth

Compound	Attribute Measured	Observed Result
CCCN1CCN(c2ccc3nc(-c4ccc5nc(-c6cc(OC)c(OC)c(OC)c6)[nH]c5c4)[nH]c3c2)CC1	growth	109% (inactive)
CCOC(=O)C(O)C(O)(c1ccccc1)c1ccccc1 (stereo not given)	growth	100% (inactive)
O=C1NN(C(=O)c2ccc(O)cc2)C(c2ccccc2)=N/C1=C\c1cn(-c2ccccc2)nc1-c1ccccc1	growth	102% (inactive)
O=C(CCCCCCCn1cc(-c2cccnc2)nn1)Nc1ccccc1-c1ccccc1	growth	64.9% (inactive)
C=C(C=O)[C@@H]1CC=C(C=O)CC1	growth	2.06% (active)
